Test system: HS 578T breast
PROTOCOL NOTES: NCI-60 one-dose screen, 48 h
RECORDED CONDITIONS: 10 µM unless noted
The panel holds about 83,000 compounds, 20% with a hit somewhere; the sample as a whole holds those more often. Active and inactive are the calls of the source. Rule for the calls: active = growth percent below 10; inactive = the rest.
Can you answer with just one of these options? TRUE (active), FALSE (inactive)

Q: # fetch the recorded call for Cc1cc(NCCCNc2ccnc3cc(Cl)ccc23)nc(Nc2ccc(C(=O)N3CCCCC3)cc2)n1 here
Ans: FALSE

Q: And the next one, O=C(Cc1ccc(/C=C/C(=O)c2ncc[nH]2)cc1)Nc1cc(F)c(F)c(F)c1 ?
Ans: FALSE

Q: And the next one, COc1ccccc1/C=C/C(=O)Nc1ccc(F)cc1 ?
Ans: FALSE

Q: And the next one, CCCCCCCCn1ccc2cc(NC(=O)CN3CCN(c4cc(C)nc(Cl)n4)CC3)ccc21 ?
Ans: FALSE

Q: And the next one, CN(C)CCCNC(=O)c1cncnc1Nc1ccc2c(ccn2Cc2cccc(F)c2)c1 ?
Ans: FALSE

Q: And the next one, O=c1oc2c(cc1-c1ccccc1)c[n+]([O-])c1ccccc21 ?
Ans: FALSE

Q: And the next one, COc1ccccc1S(=O)(=O)Nc1ccc2c3c(cc(CCC(=O)NCCCCNc4cccc5c4C(=O)N(C4CCC(=O)NC4=O)C5=O)cc13)C(=O)N2C (stereo not given) ?
Ans: TRUE

Q: And the next one, S=c1ccnc[nH]1 ?
Ans: FALSE

Q: And the next one, O=C(c1cccc(N2CCOCC2)n1)c1c[nH]c2ccccc12 ?
Ans: FALSE

Q: And the next one, CN(C)c1ccc(/C=C2\C=C(c3nc4ccccc4s3)OC2=O)cc1 ?
Ans: FALSE

Q: And the next one, NS(=O)(=O)c1ccc(C(=O)N=Nc2c(O)[nH]c3ccc(Cl)cc23)cc1 ?
Ans: FALSE

Q: And the next one, COc1cc2c3c(c4c5ccccc5[nH]c4c2c(OC)c1OC)C(=O)N(CCN1CCCCC1)C3=O ?
Ans: FALSE

Q: And the next one, COc1ccc(C2[C@@H](c3ccccc3)C(=O)N2c2cc(OC)c(OC)c(OC)c2)cc1F (stereo not given in full) ?
Ans: FALSE

Q: And the next one, CN(C)CCn1c(=O)c2ccccc2n2nc3ccccc3c12 ?
Ans: FALSE

Q: And the next one, CN(C)c1ccc(C(=S)c2ccc(N(C)C)cc2)cc1 ?
Ans: FALSE

Q: And the next one, [N-]=[N+]=NCC1OC(n2cnc3c(NC(=O)Nc4ccccc4)ncnc32)C2OC(=O)CC12 (stereo not given) ?
Ans: FALSE

Q: And the next one, O=C(Nc1cc(Cl)cc(Cl)c1)Oc1c(Cl)c(Cl)c(Cl)c(Cl)c1Cl ?
Ans: FALSE

Q: And the next one, COC12C=C/C(=C(/C(=O)OCCSc3ccnn3C)C(=O)CCCCCCCCC3(OC)C=C/C(=C(/C(=O)OCCSc4ccnn4C)C(=O)CCCCCCCC1)O3)O2 ?
Ans: FALSE

Q: And the next one, O=S(=O)(Nc1ccc2ccccc2c1)c1ccc(-c2cnc(C3CC3)o2)cc1 ?
Ans: FALSE

Q: And the next one, CCOC(=O)C/C(=N\Nc1cc(=O)[nH]c2ccc(OC)cc12)C(=O)OCC ?
Ans: FALSE

Q: And the next one, Nc1cc(C(=O)O)cc(-n2c(O)c(C=C3N=c4ccccc4=N3)sc2=S)c1 ?
Ans: FALSE

Q: And the next one, C=C(C)[C@@H]1CC[C@]2(C(=O)N3CCNCC3)CC[C@]3(C)[C@H](CC[C@@H]4[C@@](C)(CCC(=O)N5CCNCC5)[C@H](C(=C)C)CC[C@]43C)[C@@H]12 ?
Ans: FALSE

Q: And the next one, CCOC(=O)NC(=S)n1oc(=O)c2ccccc21 ?
Ans: FALSE

Q: And the next one, CC1=Nc2cnc(Nc3ccc(N4CCCCC4)cc3)nc2Nc2ccccc21 ?
Ans: FALSE

Q: And the next one, CC(=O)Nc1sc2c(c1-c1nc3ccccc3s1)CNC2 ?
Ans: FALSE

Q: And the next one, CN1CCN(c2ccc(NC3=CC(=O)c4ncncc4C3=O)cc2)CC1 ?
Ans: TRUE

Q: And the next one, Nc1ncnc2c1N=C(c1ccc(F)cc1)CC(c1cccc(Nc3ccnc4cc(Cl)ccc34)c1)N2 (stereo not given) ?
Ans: FALSE

Q: And the next one, Cc1ccc(-c2nc(SCC(=O)N3CCN(c4cc5c(cc4F)c(=O)c(C(=O)O)cn5C4CC4)CC3)nc(Cl)c2C#N)cc1 ?
Ans: FALSE

Q: And the next one, CSc1ccc2c3c(n(CCCn4ccnc4)c(=O)c2c1)-c1ccccc1C3=O ?
Ans: FALSE

Q: And the next one, Cc1cc(=O)oc2cc(Oc3nc(Br)cn4c(Br)cnc34)ccc12 ?
Ans: FALSE

----------
Test system: HT29 colon
PROTOCOL NOTES: NCI-60 one-dose screen, 48 h (100 = growth as untreated, 0 = no growth, -100 = all killed)
RECORDED CONDITIONS: 10 µM unless noted
This is part of a sample that, as a whole, favours compounds with a hit. Of some 83,000 tested, about 20% had one in any assay.
Friendly reminder: growth below 30% is satisfied, at or above is not satisfied.

Q: Does COc1ccc(OC)c(Nc2nnc(-c3cc(OC)c(OC)c(OC)c3)o2)c1 have growth strictly under 30%?
Ans: not satisfied

Q: And the next one, N#Cc1c(-c2ccccc2)nc2c(c(-c3ccc(Cl)cc3)nn2-c2ccccc2)c1-c1ccc([N+](=O)[O-])cc1 ?
Ans: not satisfied

Q: And the next one, C=C(c1ccc(C(=O)O)c(F)c1)c1cc2c(cc1C)C(C)(C)CCC2(C)C ?
Ans: not satisfied

Q: And the next one, S=c1ccnc[nH]1 ?
Ans: not satisfied

Q: And the next one, CC1(C)N=C(N)N=C(N)N1c1cc(Cl)ccc1Cl ?
Ans: satisfied

Q: And the next one, CCOC(=O)CC1CSC(N/N=C/c2ccc(F)c(Br)c2)=N1 (stereo unspecified) ?
Ans: not satisfied

Q: And the next one, COc1ccc(Nc2ncc(I)c(NCCCNC(=O)C3CCC3)n2)cc1 ?
Ans: satisfied

Q: And the next one, CC(C)(C)OC(=O)CN1CCc2c(sc3ncnc(N4CCN(c5ccc(F)cc5)CC4)c23)C1 ?
Ans: not satisfied

Q: And the next one, O=C(Oc1ccc2c(c1)sc1nc(-c3ccccc3)[nH]c(=O)c12)C(F)(F)F ?
Ans: not satisfied

Q: And the next one, ClCCn1cnc2c(SCc3ccccc3)ncnc21 ?
Ans: not satisfied

Q: And the next one, COc1cc2c(c(OC)c1OC)C(=O)CC(c1cccc(C(=O)Nc3ccc(C#N)cc3)c1)O2 (stereo unspecified) ?
Ans: not satisfied

Q: And the next one, Cc1cn(C)cn1 ?
Ans: not satisfied

Q: And the next one, O=[N+]([O-])c1ccccc1Nc1ccc2ccccc2c1 ?
Ans: not satisfied

Q: And the next one, O=c1cc(CNc2cc(F)cc(F)c2)c2ccc(I)cc2[nH]1 ?
Ans: satisfied

Q: And the next one, COc1ccccc1/C=C/C(=O)Nc1ccc(F)cc1 ?
Ans: not satisfied

Q: And the next one, CCCCCCCCn1ccc2cc(NC(=O)CN=[N+]=[N-])ccc21 ?
Ans: not satisfied

Q: And the next one, CCNC(=O)N1CCc2c(Br)c3c(c(OC)c2C1Cc1ccc(OC)cc1)OCO3 (stereo unspecified) ?
Ans: satisfied

Q: And the next one, CN1CC(c2ccc(Br)cc2)C(C(=O)c2ccc(Br)cc2)C12C(=O)Nc1ccccc12 (stereo unspecified) ?
Ans: not satisfied

Q: And the next one, COC(=O)/C(CCC=C(C)C)=C1\[C@@H](OC(C)=O)C[C@@]2(C)[C@H]1C/C(=N/O)[C@H]1[C@@]3(C)CC/C(=N\O)[C@@H](C)[C@@H]3CC[C@@]12C ?
Ans: not satisfied

Q: And the next one, Fc1cc2[nH]ncc2c2c3c(c(-c4cn[nH]c4C(F)(F)F)nc12)CCCC3 ?
Ans: satisfied

Q: And the next one, ClC(Cl)c1nc(-c2ccccc2)n2nc(-c3ccccc3)cc2n1 ?
Ans: satisfied

Q: And the next one, C=C1C(=O)O[C@H]2[C@H]1CC/C(COC(=O)NCc1ccc(Cn3c(=O)sn(-c4ccc(I)cc4)c3=O)cc1)=C\CC[C@@]1(C)O[C@@H]21 ?
Ans: not satisfied

Q: And the next one, Oc1nc(NCc2ccccc2)sc1/C=C1\C=Nc2ncccc21 ?
Ans: not satisfied

Q: And the next one, O=C(Nc1cc(Cl)ccc1O)c1ccccc1Nc1ccnc(C(F)(F)F)c1 ?
Ans: not satisfied

Q: And the next one, CCOC(=O)c1c(NC(=O)c2ccccc2)sc2c3c(ccc12)OCN(C)C3 ?
Ans: satisfied

Q: And the next one, C[C@@H]1NC(=O)[C@H](Cc2ccccc2)N(Cc2cccnc2)C1=O ?
Ans: not satisfied

Q: And the next one, CC1(C)CC[C@]2(CO)CC[C@]3(C)[C@](O)([C@H](O)C[C@@H]4[C@@]5(C)CCCNC(C)(C)[C@@H]5CC[C@]43C)[C@@H]2C1 ?
Ans: satisfied

Q: And the next one, CN(C)/C(N)=N/N=C(\c1ccccc1)c1ccccn1 ?
Ans: not satisfied

Q: And the next one, COC12C=C/C(=C(/C(=O)OCCSc3ccnn3C)C(=O)CCCCCCCCC3(OC)C=C/C(=C(/C(=O)OCCSc4ccnn4C)C(=O)CCCCCCCC1)O3)O2 ?
Ans: satisfied

Q: And the next one, Cc1c2ncccc2nc2[nH]c3ccc(OCCN(C)C)cc3c12 ?
Ans: satisfied

Q: And the next one, Cc1cc(=O)oc2cc(Oc3nc(Br)cn4c(Br)cnc34)ccc12 ?
Ans: not satisfied

Q: And the next one, Nc1nc(N)c2c(n1)NC(c1cccc(Nc3ccnc4cc(C(F)(F)F)ccc34)c1)CC(c1ccc3c(c1)OCO3)=N2 (stereo unspecified) ?
Ans: satisfied

Q: And the next one, N#Cc1c(-c2ccccc2)nc2c(c(-c3ccccc3)nn2-c2ccccc2)c1-c1ccc(N2CCCCC2)cc1 ?
Ans: not satisfied

Q: And the next one, CC1=C2CC/C(C)=C/CC[C@]3(C)O[C@H]3CC/C(C)=C/[C@H]2OC1 ?
Ans: not satisfied

Q: And the next one, O=S(Nc1ccccc1)c1ccc(Cl)cc1 (stereo unspecified) ?
Ans: not satisfied

All values here come from PubChem BioAssay (NCI).
